Origin of measurements: patent US5527781A

System: Corynebacterium bovis 1810
Exam item: assign T to entries whose MIC is below 2 µg/mL and F to entries at or above 2 µg/mL. Note that a value of exactly 2 µg/mL receives F.

{"COMPOUND": "NCC[C@H](O)C(=O)N[C@@H]1C[C@H](N)[C@@H](O[C@H]2O[C@H](CN)CC[C@H]2N)C(F)(F)[C@H]1O[C@H]1O[C@H](CO)[C@@H](O)[C@H](N)[C@H]1O [Compound 5FF-DKB-AHB]", "ASSIGNED_CLASS": "T"}
{"COMPOUND": "CN[C@@H]1[C@@H](O)[C@@H](O[C@@H]2[C@@H](O)[C@H](O[C@H]3O[C@H]([C@@H](C)NC)CC[C@H]3N)[C@@H](N)C[C@H]2N)OC[C@]1(C)O [Genta-C1, gentamicin C1, reference compound]", "ASSIGNED_CLASS": "T"}
{"COMPOUND": "CN[C@@H]1[C@@H](O)[C@@H](O[C@H]2[C@H](N)C[C@H](N)[C@@H](O[C@H]3O[C@H]([C@@H](C)N)CC[C@H]3N)C2(F)F)OC[C@]1(C)O [Compound 5FF-Genta-C2, 5-deoxy-5,5-difluorogentamicin C2]", "ASSIGNED_CLASS": "T"}
{"COMPOUND": "CCN[C@@H]1C[C@H](N)[C@@H](O[C@H]2OC(CN)=CC[C@H]2N)C(F)(F)[C@H]1O[C@H]1OC[C@](C)(O)[C@H](NC)[C@H]1O [5FF-Netilmicin, 5-deoxy-5,5-difluoronetilmicin]", "ASSIGNED_CLASS": "T"}
{"COMPOUND": "NC[C@H]1O[C@H](O[C@@H]2[C@@H](N)C[C@@H](N)[C@H](O[C@H]3O[C@H](CO)[C@@H](O)[C@H](N)[C@H]3O)C2(F)F)[C@H](N)C[C@@H]1O [Compound 5FF-TOB, 5-deoxy-5,5-difluorotobramycin]", "ASSIGNED_CLASS": "T"}
{"COMPOUND": "CN[C@@H]1[C@@H](O)[C@@H](O[C@H]2[C@H](N)C[C@H](N)[C@@H](O[C@H]3O[C@H]([C@@H](C)NC)CC[C@H]3N)C2(F)F)OC[C@]1(C)O [Compound 5FF-Genta-C1, 5-deoxy-5,5-difluorogentamicin C1]", "ASSIGNED_CLASS": "F"}
{"COMPOUND": "CN[C@@H]1[C@@H](O)[C@@H](O[C@H]2[C@H](NC(=O)[C@@H](O)CCN)C[C@H](N)[C@@H](O[C@H]3O[C@H]([C@@H](C)N)CC[C@H]3N)C2(F)F)OC[C@]1(C)O [5FF-Genta-C2-AHB]", "ASSIGNED_CLASS": "T"}
{"COMPOUND": "NCC[C@H](O)C(=O)N[C@@H]1C[C@H](N)[C@@H](O[C@H]2O[C@H](CN)[C@@H](O)[C@H](O)[C@H]2O)C(F)(F)[C@H]1O[C@H]1O[C@H](CO)[C@@H](O)[C@H](N)[C@H]1O [Compound 5FF-amikacin]", "ASSIGNED_CLASS": "F"}
{"COMPOUND": "NCC[C@H](O)C(=O)N[C@@H]1C[C@H](N)[C@@H](O[C@H]2O[C@H](CN)[C@@H](O)C[C@H]2N)C(F)(F)[C@H]1O[C@H]1O[C@H](CO)[C@@H](O)[C@H](N)[C@H]1O [Compound 5FF-TOB-AHB]", "ASSIGNED_CLASS": "T"}
{"COMPOUND": "CN[C@@H]1[C@@H](O)[C@@H](O[C@H]2[C@H](N)C[C@H](N)[C@@H](O[C@H]3O[C@H](CN)CC[C@H]3N)C2(F)F)OC[C@]1(C)O [5FF-Genta-C1a, 5-deoxy-5,5-difluorogentamicin C1a]", "ASSIGNED_CLASS": "T"}
{"COMPOUND": "NC[C@@H]1CC[C@@H](N)[C@@H](O[C@@H]2[C@@H](N)C[C@@H](N)[C@H](O[C@H]3O[C@H](CO)[C@@H](O)[C@H](N)[C@H]3O)C2(F)F)O1 [Compound 5FF-DKB, 5,3',4'-trideoxy-5,5-difluorokanamycin B]", "ASSIGNED_CLASS": "T"}
